The values you see were collected from the supplement of paper PMC13380429.

System: U2OS
Experiment: cell viability relative to DMSO; higher = less toxic
Conditions: 72 h; 1 nM
RECORDED_METRIC: cell viability (%)
Unit % implied. Number only.

Known results for molecules:
> print(dat)
                                   molecule  experimental.target  unit.abbrev   val
1  Nc1nc(CC(=O)Nc2ccc(CCNC[C@H](O)c3ccccc3)cc2)cs1 [mirabegron]                 U2OS            %   102
2        O=c1ccc2ccc(O)c(O)c2o1 [daphnetin]                 U2OS            %   111
3  CCCN1C[C@H](CSC)C[C@@H]2c3cccc4[nH]cc(c34)C[C@H]21 [pergolide]                 U2OS            %  97.3
4  N=C(N)Nc1ccc2[nH]c3c(c2c1)C[C@@]1(O)[C@H]2Cc4ccc(O)c5c4[C@@]1(CCN2CC1CC1)[C@H]3O5 [GNTI]                 U2OS            %  99.7

Now for a further molecule.
Which value of cell viability has been reported for CSc1ccc([C@H]2CN3CCC[C@H]3c3ccccc32)cc1 (racemic) [McN-5652-(+/-)] in the records? 97.8

----------
Tested on: U2OS
Assay: cell viability relative to DMSO; higher = less toxic
Details: 72 h; 10000 nM
Exam item: assign rule met to entries whose cell viability is below 90% and rule not met to entries at or above 90%. Note that a value of exactly 90% receives rule not met.

// below: answered compounds
> print(dat)
                                chem.smiles  assigned.class
1  CN1CCC(Nc2ncc3ncnc(Nc4ccc(F)c(Cl)c4)c3n2)CC1        rule met
2                       Oc1ccc(Cl)c2cccnc12    rule not met
3  COc1cc(C(=O)c2c(C)oc3c(O)c(OC)ccc23)cc(OC)c1OC        rule met
4  COc1cc2ncnc(Nc3cccc(Cl)c3F)c2cc1OC(=O)N1CCN(C)C[C@H]1C    rule not met

Please look at the following compound next.
is_below(cell viability, 90%) for "COc1c2ccoc2cc2oc(=O)ccc12" ? rule not met

----------
drug sensitivity score by entry:
Test system: HepG2
Assay: drug sensitivity score (DSS) for viability; higher = more toxic; extreme values may be limits of the assay
Settings: 72 h
Answer using only a numeral; do not append any unit.

Some solved cases for reference:
> print(dat)
                                   molecule  val
1                        C1N2CN3CN1CN(C2)C3    0
2  CCN(CC)CCNC(=O)c1ccc(N)cc1 [procainamide]    0
3  NC[C@@](O)(c1ccc(Cl)cc1)c1ccc(-c2cn[nH]c2)cc1  1.4
4  Cc1ccnc2c1CCCC2C(N)=S (stereo not given) [isotiquimide]    0
5  OC[C@H]1O[C@@H](Oc2cc(O)cc(/C=C/c3ccc(O)cc3)c2)[C@H](O)[C@@H](O)[C@@H]1O    0

I would be grateful if you could share the reported drug sensitivity score for "O=[N+]([O-])c1cc(Cl)ccc1S(=O)(=O)N1CCN(Cc2ccccc2)CC1" . 0

Can you look up the measured drug sensitivity score of NCC(CC(=O)O)c1ccc(Cl)cc1 (stereo not given) for me? 0

Look at this molecule and give its reported drug sensitivity score. "CN(C)/C=N/c1c(I)cc(I)c(CCC(=O)O)c1I" 0

Would you kindly share the measured drug sensitivity score for "CN(C)C/C=C(/c1ccc(Br)cc1)c1cccnc1" ? 0

Query: drug sensitivity score; subject: "C[C@]1(COc2ccc(N3CCC(Oc4ccc(OC(F)(F)F)cc4)CC3)cc2)Cn2cc([N+](=O)[O-])nc2O1" 0

Which drug sensitivity score is listed for "Nc1n[nH]c2nc3ccccc3nc12" ? 0

Look at this molecule and give its reported drug sensitivity score. "OC(c1ccc(-c2ccc(CN3CCN(Cc4ccncc4)CC3)cc2)c(F)c1)(C(F)(F)F)C(F)(F)F" 2.9

----------
Tested on: U2OS
Assay: cell viability relative to DMSO; higher = less toxic
Conditions: 72 h; 10 nM
RECORDED_METRIC: cell viability (%)
Dear colleague, please return just the value in %, with no unit written.

> print(dat)
                                chem.smiles  unit.abbrev   val
1                       Oc1ccc(Cl)c2cccnc12            %  99.3
2  CC(=O)OCC(=O)[C@@]12N=C(C)O[C@@H]1C[C@H]1[C@@H]3CCC4=CC(=O)C=C[C@]4(C)[C@H]3[C@@H](O)C[C@@]12C            %  95.6
3           Nc1c(CC(=O)O)cccc1C(=O)c1ccccc1            %    96

I would be grateful if you could share the reported cell viability for "Cc1c(Cn2c(C)nc3c(C(=O)O)cc(N4CCOCC4)cc32)cccc1C(F)(F)F" . 104

Form field: reported cell viability of "O=[N+]([O-])c1ncc[nH]1" 88.7

----------
Tested on: Vero E6
Experiment: cell viability relative to DMSO; higher = less toxic
Details: 72 h; 10 nM
Recorded measurements of cell viability, one per entry
Please respond with the number in % and leave the unit unwritten.

# count of solved cases: 4
> print(dat)
                                   molecule  experimental.target   val
1  CC(C)c1ccc(NC(=O)Cn2cnc3c2c(=O)n(C)c(=O)n3C)cc1              Vero E6   107
2  Cc1c(Cn2c(C)nc3c(C(=O)O)cc(N4CCOCC4)cc32)cccc1C(F)(F)F              Vero E6   101
3  CN(C)C(=O)COC(=O)Cc1ccc(OC(=O)c2ccc(NC(=N)N)cc2)cc1 [camostat-mesilate]              Vero E6  99.7
4  CC1=C(CC(=O)O)c2cc(F)ccc2/C1=C\c1ccc(S(C)(=O)=O)cc1 [exisulind]              Vero E6  96.2

Now for another entry.
Fill in the blank: the reported cell viability of CC(Cc1ccccc1)NCCC(c1ccccc1)c1ccccc1 (stereo not given) [prenylamine] is ____. 110

----------
Test system: A549-ACE2 infected with SARS-CoV-2
Assay: SARS-CoV-2 infection rate relative to DMSO; higher = more infection
Conditions: 0.3 µM; 24 h
SARS-CoV-2 infection rate overview
Give your result in % as a bare value.

What value of SARS-CoV-2 infection rate has been recorded for this entry: "CN1C(=O)/C(=C2/C(=O)Nc3ccccc32)c2ccccc21" 103

Recorded SARS-CoV-2 infection rate for CC(Cc1ccccc1)NCCC(c1ccccc1)c1ccccc1 (centres undefined) , please? 108

Which SARS-CoV-2 infection rate is listed for CCCCCCCCCCC(O)C1C=CC2C(=O)N(c3ccccc3)C(=O)C2N1Nc1ccc([N+](=O)[O-])cc1 (centres undefined) ? 92

Give its SARS-CoV-2 infection rate value. Item: "COc1cc2ncnc(Sc3nnc(C)s3)c2cc1OC" 105

----------
Tested on: Calu-3
Assay: cell viability relative to DMSO; higher = less toxic
Settings: 72 h; 10 nM
The molecules listed here are annotated with their cell viability.
# output: bare number, implied unit %

Sample records with cell viability:
> print(dat)
                                   molecule  recorded.metric   val
1                       Oc1ccc(Cl)c2cccnc12   cell viability   100
2                    O=[N+]([O-])c1ncc[nH]1   cell viability   102
3  NS(=O)(=O)c1cc2c(cc1Cl)NC(C1CC3C=CC1C3)NS2(=O)=O (centres undefined) [cyclothiazide]   cell viability  96.7
4  CCC(Cc1c(I)cc(I)c(N)c1I)C(=O)O (centres undefined)   cell viability  91.4
5                   CCC(=O)OCN1C(=O)C=CC1=O   cell viability   108
6  NS(=O)(=O)OC[C@@H]1C[C@@H](n2ccc3c(N[C@H]4CCc5ccccc54)ncnc32)C[C@@H]1O   cell viability  97.2
7  CCC(CC)(CC(=O)Nc1cccc(/C=C/c2nc(C3CCC3)cs2)c1)C(=O)O   cell viability  89.9
8  COc1cc2ncn(-c3cc(OCc4ccccc4C(F)(F)F)c(C(N)=O)s3)c2cc1OC   cell viability   101

Now consider the entry below.
Any idea what its cell viability is? The molecule is COc1cc(/C=C/C(=O)N2CCN(CC(=O)N3CCCC3)CC2)cc(OC)c1OC [cinepazide] 96

----------
Test system: HepG2
Experiment: cell viability relative to DMSO; higher = less toxic
Details: 72 h; 100 nM
So basically, if cell viability comes in under 90% it's fulfilled, and if it's 90% or more it's not fulfilled.

Completed entries (count: 3):
> print(dat)
                                   compound  assigned.class
1         O=C(NCc1ccccc1)c1csc(Nc2ccncn2)n1   not fulfilled
2  CCN(CC)CCNC(=O)c1ccc(N)cc1 [procainamide]   not fulfilled
3    O=C1CCc2cc(OCCCCc3nnnn3C3CCCCC3)ccc2N1   not fulfilled

Shifting focus to the compound that follows.
Take the compound "COc1cc(C(=O)c2c(C)oc3c(O)c(OC)ccc23)cc(OC)c1OC" and say whether its cell viability is less than 90%. fulfilled
